// each record: one item and its Ki for tissue kallikrein (HK1) (Homo sapiens (Human), UniProt P06870)
Respond numerically; units are nM and should not be typed.

Below, each entry is followed by its recorded Ki result.
>  <compound>
Cc1cc2ccc1[C@@H](C)COC(=O)Nc1cc(F)c(OC[C@H](O)C3CC3)c(c1)CN(C)C(=O)[C@@H]2Nc1ccc2c(N)nccc2c1.O=C(O)C(F)(F)F (stereo in doubt)

>  <parameter>
Ki

>  <val>
550

$$$$
>  <compound>
Cc1cc2ccc1[C@@H](C)COC(=O)Nc1cc(F)c(S(=O)(=O)C3CC3)c(c1)CN(C)C(=O)[C@@H]2Nc1cc2ccnc(N)c2cc1F.O=C(O)C(F)(F)F

>  <parameter>
Ki

>  <val>
750

$$$$
>  <compound>
Cc1cc2ccc1[C@@H](C)COC(=O)Nc1ccc(C(=O)N3CCC3)c(c1)CN(C)C(=O)[C@@H]2Nc1ccc2c(N)nccc2c1.O=C(O)C(F)(F)F

>  <parameter>
Ki

>  <val>
630

$$$$
>  <compound>
Cc1cc2ccc1[C@@H](C)COC(=O)Nc1cc(F)c(S(=O)(=O)C3CC3)c(c1)CN(C)C(=O)[C@@H]2Nc1cc(F)c2c(N)nccc2c1.O=C(O)C(F)(F)F

>  <parameter>
Ki

>  <val>
96

$$$$
>  <compound>
COCCCOc1c(F)cc2cc1CN(C)C(=O)[C@H](Nc1ccc3c(N)nccc3c1)c1ccc(c(C)c1)[C@@H](C)COC(=O)N2.O=C(O)C(F)(F)F

>  <parameter>
Ki

>  <val>
290

$$$$

Report measured Ki on tissue kallikrein (HK1) (Homo sapiens (Human), UniProt P06870); entry: Cc1cc2ccc1[C@@H](C)COC(=O)Nc1ccc(S(=O)(=O)C(C)(C)C)c(c1)CN(C)C(=O)[C@@H]2Nc1ccc2c(N)nccc2c1.O=C(O)C(F)(F)F (stereo in doubt)
Sequence (P06870 25-262): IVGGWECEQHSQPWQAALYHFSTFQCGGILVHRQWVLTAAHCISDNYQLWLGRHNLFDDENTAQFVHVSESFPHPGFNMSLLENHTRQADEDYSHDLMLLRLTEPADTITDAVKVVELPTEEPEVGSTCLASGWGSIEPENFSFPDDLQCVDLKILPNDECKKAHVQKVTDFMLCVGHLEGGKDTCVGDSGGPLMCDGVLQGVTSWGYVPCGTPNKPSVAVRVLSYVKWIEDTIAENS
780

Report measured Ki on tissue kallikrein (HK1) (Homo sapiens (Human), UniProt P06870); entry: Cc1cc2ccc1[C@@H](C)COC(=O)Nc1cc(F)c(S(=O)(=O)C(C)C)c(c1)CN(C)C(=O)[C@@H]2Nc1cc(F)c2c(N)nccc2c1.O=C(O)C(F)(F)F
120
